Values from ChEMBL document CHEMBL5346907

# Measurement Protocol: Half life in Sprague-Dawley rat at 2 mg/kg, iv
# Format: ADME, organism-based
# Details: in vivo
Measurement Type: half-life (min)

INSERT INTO assay_data (structure_as_smiles, assay_result) VALUES
  ('NC(=O)c1cccc(-c2cnc3[nH]ccc3c2)c1', 48.6);

###

# System: CDK7/Cyclin H/MNAT1 (Homo sapiens)
# Sequence (P51946 whole entry): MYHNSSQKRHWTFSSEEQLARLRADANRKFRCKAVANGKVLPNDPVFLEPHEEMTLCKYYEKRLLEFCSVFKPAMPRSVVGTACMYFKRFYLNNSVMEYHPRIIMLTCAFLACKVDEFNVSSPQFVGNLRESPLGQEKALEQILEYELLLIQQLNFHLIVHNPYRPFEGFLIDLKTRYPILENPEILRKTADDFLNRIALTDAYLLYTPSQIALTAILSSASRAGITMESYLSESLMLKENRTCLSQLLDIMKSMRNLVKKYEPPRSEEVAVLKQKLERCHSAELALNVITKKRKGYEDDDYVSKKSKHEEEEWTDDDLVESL
# Sequence (P50613 whole entry): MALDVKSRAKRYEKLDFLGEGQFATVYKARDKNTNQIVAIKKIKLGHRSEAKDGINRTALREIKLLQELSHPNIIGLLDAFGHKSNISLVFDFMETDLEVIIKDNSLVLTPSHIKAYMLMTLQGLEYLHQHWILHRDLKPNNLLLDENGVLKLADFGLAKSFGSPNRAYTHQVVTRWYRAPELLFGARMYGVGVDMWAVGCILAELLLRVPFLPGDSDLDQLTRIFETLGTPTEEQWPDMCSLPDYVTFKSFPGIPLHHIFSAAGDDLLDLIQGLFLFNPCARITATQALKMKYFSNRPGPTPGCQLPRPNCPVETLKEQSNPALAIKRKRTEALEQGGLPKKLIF
# Sequence (P51948 whole entry, further chain): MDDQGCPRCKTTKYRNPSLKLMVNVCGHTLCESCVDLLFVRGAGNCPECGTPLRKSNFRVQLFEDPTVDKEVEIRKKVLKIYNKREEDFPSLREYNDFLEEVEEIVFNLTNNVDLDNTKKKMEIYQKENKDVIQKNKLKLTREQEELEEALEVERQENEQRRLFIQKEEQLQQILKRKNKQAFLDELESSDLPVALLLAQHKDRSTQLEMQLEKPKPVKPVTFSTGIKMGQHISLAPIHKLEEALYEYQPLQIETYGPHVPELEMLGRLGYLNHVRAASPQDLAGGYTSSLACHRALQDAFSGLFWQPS
# Measurement Protocol: Inhibition of CDK7/Cyclin H/MAT1 (unknown origin) preincubated for 10 mins followed by substrate addition measured for 60 to 120 mins by HTRF assay
pIC50: −log10 of the molar value.
Measurement Type: pIC50

INSERT INTO results (structure_as_smiles, assay_result) VALUES
  ('NC(=O)c1cccc(-c2cnc3[nH]ccc3c2)c1', 6.37);
